Condition Description: in methanol, 298.15 K
Readout Name: solubility (mole fraction)

Quick one: solubility (mole fraction) for CC(C)(C)NCC(O)c1ccc(O)c(CO)c1 (stereo unspecified) ?
0.00824

###

Condition Description: in ethanol, 323.15 K
Readout Name: solubility (mole fraction)

Quick one: solubility (mole fraction) for CC(C)(C)NCC(O)c1ccc(O)c(CO)c1 (stereo unspecified) ?
0.00846

###

Condition Description: in n-butanol, 303.15 K
Readout Name: solubility (mole fraction)
Please state the value as a number alone, without comment.

Quick one: solubility (mole fraction) for CC(C)(C)NCC(O)c1ccc(O)c(CO)c1 (stereo unspecified) ?
0.00168

###

Condition Description: in sec-butanol, 298.15 K
Readout Name: solubility (mole fraction)

Quick one: solubility (mole fraction) for CC(C)(C)NCC(O)c1ccc(O)c(CO)c1 (stereo unspecified) ?
0.00145

###

Condition Description: in n-propanol, 318.15 K
Readout Name: solubility (mole fraction)
Please state the value as a number alone, without comment.

Quick one: solubility (mole fraction) for CC(C)(C)NCC(O)c1ccc(O)c(CO)c1 (stereo unspecified) ?
0.00552

###

Condition Description: in acetone, 303.15 K
Readout Name: solubility (mole fraction)
Please state the value as a number alone, without comment.

Quick one: solubility (mole fraction) for CC(C)(C)NCC(O)c1ccc(O)c(CO)c1 (stereo unspecified) ?
0.000237

###

Condition Description: in methyl acetate, 298.15 K
Readout Name: solubility (mole fraction)
Please state the value as a number alone, without comment.

Quick one: solubility (mole fraction) for CC(C)(C)NCC(O)c1ccc(O)c(CO)c1 (stereo unspecified) ?
0.000471

###

Condition Description: in methyl acetate, 283.15 K
Readout Name: solubility (mole fraction)
Please state the value as a number alone, without comment.

Quick one: solubility (mole fraction) for CC(C)(C)NCC(O)c1ccc(O)c(CO)c1 (stereo unspecified) ?
0.000377

###

Condition Description: in methyl acetate, 303.15 K
Readout Name: solubility (mole fraction)
Please state the value as a number alone, without comment.

Quick one: solubility (mole fraction) for CC(C)(C)NCC(O)c1ccc(O)c(CO)c1 (stereo unspecified) ?
0.000509

###

Condition Description: in sec-butanol, 283.15 K
Readout Name: solubility (mole fraction)
Please state the value as a number alone, without comment.

Quick one: solubility (mole fraction) for CC(C)(C)NCC(O)c1ccc(O)c(CO)c1 (stereo unspecified) ?
0.00102

###

Condition Description: in sec-butanol, 293.15 K
Readout Name: solubility (mole fraction)

Quick one: solubility (mole fraction) for CC(C)(C)NCC(O)c1ccc(O)c(CO)c1 (stereo unspecified) ?
0.00131

###

Condition Description: in n-propanol, 308.15 K
Readout Name: solubility (mole fraction)
Please state the value as a number alone, without comment.

Quick one: solubility (mole fraction) for CC(C)(C)NCC(O)c1ccc(O)c(CO)c1 (stereo unspecified) ?
0.00413

###

Condition Description: in methyl acetate, 288.15 K
Readout Name: solubility (mole fraction)
Please state the value as a number alone, without comment.

Quick one: solubility (mole fraction) for CC(C)(C)NCC(O)c1ccc(O)c(CO)c1 (stereo unspecified) ?
0.00041

###

Condition Description: in methyl acetate, 313.15 K
Readout Name: solubility (mole fraction)
Please state the value as a number alone, without comment.

Quick one: solubility (mole fraction) for CC(C)(C)NCC(O)c1ccc(O)c(CO)c1 (stereo unspecified) ?
0.00059

###

Condition Description: in n-propanol, 323.15 K
Readout Name: solubility (mole fraction)

Quick one: solubility (mole fraction) for CC(C)(C)NCC(O)c1ccc(O)c(CO)c1 (stereo unspecified) ?
0.00634

###

Condition Description: in methyl acetate, 323.15 K
Readout Name: solubility (mole fraction)

Quick one: solubility (mole fraction) for CC(C)(C)NCC(O)c1ccc(O)c(CO)c1 (stereo unspecified) ?
0.000682

###

Condition Description: in ethanol, 328.15 K
Readout Name: solubility (mole fraction)
Please state the value as a number alone, without comment.

Quick one: solubility (mole fraction) for CC(C)(C)NCC(O)c1ccc(O)c(CO)c1 (stereo unspecified) ?
0.0103

###

Condition Description: in acetone, 328.15 K
Readout Name: solubility (mole fraction)
Please state the value as a number alone, without comment.

Quick one: solubility (mole fraction) for CC(C)(C)NCC(O)c1ccc(O)c(CO)c1 (stereo unspecified) ?
0.000451

###

Condition Description: in isopropanol, 323.15 K
Readout Name: solubility (mole fraction)
Please state the value as a number alone, without comment.

Quick one: solubility (mole fraction) for CC(C)(C)NCC(O)c1ccc(O)c(CO)c1 (stereo unspecified) ?
0.00597

###

Condition Description: in n-butanol, 283.15 K
Readout Name: solubility (mole fraction)
Please state the value as a number alone, without comment.

Quick one: solubility (mole fraction) for CC(C)(C)NCC(O)c1ccc(O)c(CO)c1 (stereo unspecified) ?
0.00109

###

Condition Description: in ethyl acetate, 298.15 K
Readout Name: solubility (mole fraction)
Please state the value as a number alone, without comment.

Quick one: solubility (mole fraction) for CC(C)(C)NCC(O)c1ccc(O)c(CO)c1 (stereo unspecified) ?
0.000261

###

Condition Description: in ethyl acetate, 303.15 K
Readout Name: solubility (mole fraction)
Please state the value as a number alone, without comment.

Quick one: solubility (mole fraction) for CC(C)(C)NCC(O)c1ccc(O)c(CO)c1 (stereo unspecified) ?
0.00029

###

Condition Description: in n-propanol, 283.15 K
Readout Name: solubility (mole fraction)
Please state the value as a number alone, without comment.

Quick one: solubility (mole fraction) for CC(C)(C)NCC(O)c1ccc(O)c(CO)c1 (stereo unspecified) ?
0.00212

###

Condition Description: in acetone, 283.15 K
Readout Name: solubility (mole fraction)
Please state the value as a number alone, without comment.

Quick one: solubility (mole fraction) for CC(C)(C)NCC(O)c1ccc(O)c(CO)c1 (stereo unspecified) ?
0.000146

###

Condition Description: in n-butanol, 323.15 K
Readout Name: solubility (mole fraction)
Please state the value as a number alone, without comment.

Quick one: solubility (mole fraction) for CC(C)(C)NCC(O)c1ccc(O)c(CO)c1 (stereo unspecified) ?
0.00262

###

Condition Description: in n-propanol, 328.15 K
Readout Name: solubility (mole fraction)
Please state the value as a number alone, without comment.

Quick one: solubility (mole fraction) for CC(C)(C)NCC(O)c1ccc(O)c(CO)c1 (stereo unspecified) ?
0.00743

###

Condition Description: in isopropanol, 318.15 K
Readout Name: solubility (mole fraction)
Please state the value as a number alone, without comment.

Quick one: solubility (mole fraction) for CC(C)(C)NCC(O)c1ccc(O)c(CO)c1 (stereo unspecified) ?
0.00512

###

Condition Description: in ethyl acetate, 318.15 K
Readout Name: solubility (mole fraction)
Please state the value as a number alone, without comment.

Quick one: solubility (mole fraction) for CC(C)(C)NCC(O)c1ccc(O)c(CO)c1 (stereo unspecified) ?
0.000399

###

Condition Description: in n-butanol, 293.15 K
Readout Name: solubility (mole fraction)

Quick one: solubility (mole fraction) for CC(C)(C)NCC(O)c1ccc(O)c(CO)c1 (stereo unspecified) ?
0.00134

###

Condition Description: in isopropanol, 293.15 K
Readout Name: solubility (mole fraction)
Please state the value as a number alone, without comment.

Quick one: solubility (mole fraction) for CC(C)(C)NCC(O)c1ccc(O)c(CO)c1 (stereo unspecified) ?
0.00244

###

Condition Description: in methanol, 293.15 K
Readout Name: solubility (mole fraction)

Quick one: solubility (mole fraction) for CC(C)(C)NCC(O)c1ccc(O)c(CO)c1 (stereo unspecified) ?
0.00745

###

Condition Description: in ethyl acetate, 308.15 K
Readout Name: solubility (mole fraction)
Please state the value as a number alone, without comment.

Quick one: solubility (mole fraction) for CC(C)(C)NCC(O)c1ccc(O)c(CO)c1 (stereo unspecified) ?
0.000323

###

Condition Description: in methanol, 303.15 K
Readout Name: solubility (mole fraction)
Please state the value as a number alone, without comment.

Quick one: solubility (mole fraction) for CC(C)(C)NCC(O)c1ccc(O)c(CO)c1 (stereo unspecified) ?
0.00909

###

Condition Description: in n-butanol, 313.15 K
Readout Name: solubility (mole fraction)
Please state the value as a number alone, without comment.

Quick one: solubility (mole fraction) for CC(C)(C)NCC(O)c1ccc(O)c(CO)c1 (stereo unspecified) ?
0.00211

###

Condition Description: in n-propanol, 298.15 K
Readout Name: solubility (mole fraction)
Please state the value as a number alone, without comment.

Quick one: solubility (mole fraction) for CC(C)(C)NCC(O)c1ccc(O)c(CO)c1 (stereo unspecified) ?
0.00317

###

Condition Description: in methanol, 288.15 K
Readout Name: solubility (mole fraction)
Please state the value as a number alone, without comment.

Quick one: solubility (mole fraction) for CC(C)(C)NCC(O)c1ccc(O)c(CO)c1 (stereo unspecified) ?
0.00671

###

Condition Description: in acetone, 298.15 K
Readout Name: solubility (mole fraction)

Quick one: solubility (mole fraction) for CC(C)(C)NCC(O)c1ccc(O)c(CO)c1 (stereo unspecified) ?
0.000211
